Origin of the recorded values: patent US20260234738A1

target: SARS-COV-2 RBD extracellular domain expressed with a C-terminal mouse IgG2a (SARS-CoV-2)
For each record, write down the corresponding t½.
Answers are plain numbers, in h.

Binder: mAb10982 (antibody, V domains shown) VH: EVQLVESGGGLVQPGGSLRLSCAASGLTVSSNYMSWVRQAPGKGLEWVSVIYSGGTTYYADSVKGRFTISRHNSKNTLSLQMNSLRAEDTAVYYCARGEGANYYGMDVWGQGTTVTVSS VL: QSVLTQPPSVSGAPGQRVTISCTGSSSNIGTGYDVHWYQQLPGTAPKLLIYGNSNRPSGVPDRFSGSKSGTSASLAITGLQAEDEADYYCQSYDSSLSGYVVFGGGTKLTVLG
Output Unit: h
t½: 11.4

Entry under review: mAb10955 (antibody, V domains shown) VH: EVQLVESGGGLVQPGGSLRVSCAASGFTVSRNYMSWVRQAPGKGLEWVSVIYSGGSTFYADSVKGRFTISRDNSKNTLYLQMNSLRAEDTAIYYCARYIPRFDPWGQGTLVTVSS VL: DIQMTQSPSSLSASVGDRVTITCQASQDISNYLNWFQQKPGRAPKLLIYDASNLETGVPSRFSGSGSGTDFTFTISSLQPEDIATYYCQQYDNLPITFGQGTRLEIKR . Reported t½?
8.23
